C4b CFA: time (min.) for 50% cleavage of C4b α-chain for assorted binders
target: C4b (Homo sapiens (Human)) (UniProt P0C0L4)
Sequence (P0C0L4 757-1446 limits assumed, chain 1 of 2): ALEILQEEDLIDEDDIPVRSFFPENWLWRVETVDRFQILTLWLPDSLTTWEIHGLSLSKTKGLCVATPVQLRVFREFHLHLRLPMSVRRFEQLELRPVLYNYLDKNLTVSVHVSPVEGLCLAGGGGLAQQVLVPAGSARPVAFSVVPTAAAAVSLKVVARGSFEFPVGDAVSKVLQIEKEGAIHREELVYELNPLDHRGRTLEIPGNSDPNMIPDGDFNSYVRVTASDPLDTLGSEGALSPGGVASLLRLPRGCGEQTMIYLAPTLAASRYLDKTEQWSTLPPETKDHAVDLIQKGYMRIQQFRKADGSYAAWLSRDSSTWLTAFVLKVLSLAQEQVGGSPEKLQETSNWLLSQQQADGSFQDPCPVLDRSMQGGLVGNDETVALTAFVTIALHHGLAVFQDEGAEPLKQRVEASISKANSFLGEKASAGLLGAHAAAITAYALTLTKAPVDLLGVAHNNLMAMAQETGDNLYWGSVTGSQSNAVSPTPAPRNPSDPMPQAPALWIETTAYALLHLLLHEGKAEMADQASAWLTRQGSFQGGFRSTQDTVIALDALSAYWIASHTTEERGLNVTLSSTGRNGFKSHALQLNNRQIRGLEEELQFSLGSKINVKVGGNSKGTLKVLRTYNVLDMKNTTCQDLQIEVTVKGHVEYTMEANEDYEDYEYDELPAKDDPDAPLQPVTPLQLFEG
Sequence (P0C0L4 20-675 limits assumed, chain 2 of 2): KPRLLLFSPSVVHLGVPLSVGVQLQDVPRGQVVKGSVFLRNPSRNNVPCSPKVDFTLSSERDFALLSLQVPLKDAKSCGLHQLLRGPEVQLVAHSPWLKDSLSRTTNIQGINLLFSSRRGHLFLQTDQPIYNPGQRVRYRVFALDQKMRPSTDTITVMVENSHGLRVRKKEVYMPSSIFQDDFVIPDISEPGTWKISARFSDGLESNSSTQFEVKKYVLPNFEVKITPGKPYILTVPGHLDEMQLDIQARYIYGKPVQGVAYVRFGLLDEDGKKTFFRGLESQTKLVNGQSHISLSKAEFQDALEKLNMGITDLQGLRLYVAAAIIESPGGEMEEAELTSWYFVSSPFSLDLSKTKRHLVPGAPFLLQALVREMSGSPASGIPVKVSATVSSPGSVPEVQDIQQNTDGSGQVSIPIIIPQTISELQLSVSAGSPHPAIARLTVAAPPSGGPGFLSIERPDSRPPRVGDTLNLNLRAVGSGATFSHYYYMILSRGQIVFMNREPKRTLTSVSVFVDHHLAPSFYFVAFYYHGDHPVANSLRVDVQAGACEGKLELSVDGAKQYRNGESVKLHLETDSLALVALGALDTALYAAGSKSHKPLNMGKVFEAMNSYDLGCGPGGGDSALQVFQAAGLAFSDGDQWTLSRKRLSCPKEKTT
Property Name: C4b CFA: time (min.) for 50% cleavage of C4b α-chain (min)

binder="D2D3M3M4 (S199K) (protein) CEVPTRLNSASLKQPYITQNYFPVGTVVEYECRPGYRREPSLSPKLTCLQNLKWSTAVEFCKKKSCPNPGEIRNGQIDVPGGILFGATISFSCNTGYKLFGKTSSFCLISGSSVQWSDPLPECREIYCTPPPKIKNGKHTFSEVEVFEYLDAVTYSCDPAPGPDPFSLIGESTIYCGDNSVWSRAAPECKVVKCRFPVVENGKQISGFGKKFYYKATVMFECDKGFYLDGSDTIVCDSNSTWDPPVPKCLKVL" value_observed=181
binder="D2D3M3M4 (P216K) (protein) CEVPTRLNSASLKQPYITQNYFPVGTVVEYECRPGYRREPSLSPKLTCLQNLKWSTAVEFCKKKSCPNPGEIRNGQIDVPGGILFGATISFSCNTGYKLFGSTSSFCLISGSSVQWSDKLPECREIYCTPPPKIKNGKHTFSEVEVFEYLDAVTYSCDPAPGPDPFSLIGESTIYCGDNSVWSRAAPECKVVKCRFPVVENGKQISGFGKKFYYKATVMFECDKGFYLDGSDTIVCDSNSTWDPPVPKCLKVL" value_observed=93
binder="D2D3M3M4 (T200Y) (protein) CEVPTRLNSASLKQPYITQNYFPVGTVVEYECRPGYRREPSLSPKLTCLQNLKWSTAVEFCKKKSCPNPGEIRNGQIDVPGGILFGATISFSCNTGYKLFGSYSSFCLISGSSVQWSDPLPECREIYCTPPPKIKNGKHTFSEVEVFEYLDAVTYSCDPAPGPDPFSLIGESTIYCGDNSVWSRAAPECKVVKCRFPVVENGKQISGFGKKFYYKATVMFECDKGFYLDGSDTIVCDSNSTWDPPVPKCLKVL" value_observed=513
